System: velvetleaf
Assay: Greenhouse post-emergent control of velvetleaf by emulsifiable concentrates (Example 30)
Type: in vivo
Details: 420 g/ha
Protocol: The efficacy of some photo-labile ester formulations from Example 28 for post-emergent control of velvetleaf was tested in the greenhouse. All formulations were tested at rates of 140, 280, 420, and 560 g dicamba equivalent per hectare rates and compared to the diglycolamine salt of dicamba (CLARITY®) at the same rates and untreated control plants. The velvetleaf plants were 10-15 cm in height at the time of spraying. Percent control was evaluated three weeks after treatment. […]
In this section, each of the compounds is paired with its reported % Control of velvetleaf, 420 g/ha.
quantity-kind: % Control of velvetleaf, 420 g/ha (%)

{"compound": "COc1c(Cl)ccc(Cl)c1C(=O)O.NCCOCCO [Diglycolamine salt, diglycolamine salt of dicamba, reference compound]", "assayed-system": "velvetleaf", "quantity-kind": "% Control of velvetleaf, 420 g/ha", "reading": 96}
{"compound": "COc1c(Cl)ccc(Cl)c1C(=O)OCCOCc1ccccc1[N+](=O)[O-] [Ester 4]", "assayed-system": "velvetleaf", "quantity-kind": "% Control of velvetleaf, 420 g/ha", "reading": 50}
{"compound": "COc1c(Cl)ccc(Cl)c1C(=O)OCCOc1ccccc1[N+](=O)[O-] [Ester 3]", "assayed-system": "velvetleaf", "quantity-kind": "% Control of velvetleaf, 420 g/ha", "reading": 40}
{"compound": "COc1c(Cl)ccc(Cl)c1C(=O)Oc1cnc2ccccc2n1 [Ester 13a, 2-quinoxalinol ester of dicamba]", "assayed-system": "velvetleaf", "quantity-kind": "% Control of velvetleaf, 420 g/ha", "reading": 70}
